- system.under.test: Histone deacetylase 3/Nuclear receptor corepressor 2 (HDAC3/NCoR2) (Homo sapiens, UniProt O15379)
- Sequence (O15379 whole entry): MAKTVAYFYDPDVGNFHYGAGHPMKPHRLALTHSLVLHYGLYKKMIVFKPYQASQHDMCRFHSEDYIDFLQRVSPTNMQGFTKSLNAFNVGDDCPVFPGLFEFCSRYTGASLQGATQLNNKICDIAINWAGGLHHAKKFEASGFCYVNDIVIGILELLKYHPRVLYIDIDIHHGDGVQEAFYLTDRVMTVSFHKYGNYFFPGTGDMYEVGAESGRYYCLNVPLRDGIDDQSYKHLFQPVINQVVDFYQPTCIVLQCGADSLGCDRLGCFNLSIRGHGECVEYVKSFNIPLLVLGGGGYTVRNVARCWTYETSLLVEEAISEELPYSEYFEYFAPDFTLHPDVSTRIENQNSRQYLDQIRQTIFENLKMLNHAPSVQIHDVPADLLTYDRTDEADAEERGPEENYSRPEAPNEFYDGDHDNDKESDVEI
- Sequence (Q9Y618 whole entry, further chain): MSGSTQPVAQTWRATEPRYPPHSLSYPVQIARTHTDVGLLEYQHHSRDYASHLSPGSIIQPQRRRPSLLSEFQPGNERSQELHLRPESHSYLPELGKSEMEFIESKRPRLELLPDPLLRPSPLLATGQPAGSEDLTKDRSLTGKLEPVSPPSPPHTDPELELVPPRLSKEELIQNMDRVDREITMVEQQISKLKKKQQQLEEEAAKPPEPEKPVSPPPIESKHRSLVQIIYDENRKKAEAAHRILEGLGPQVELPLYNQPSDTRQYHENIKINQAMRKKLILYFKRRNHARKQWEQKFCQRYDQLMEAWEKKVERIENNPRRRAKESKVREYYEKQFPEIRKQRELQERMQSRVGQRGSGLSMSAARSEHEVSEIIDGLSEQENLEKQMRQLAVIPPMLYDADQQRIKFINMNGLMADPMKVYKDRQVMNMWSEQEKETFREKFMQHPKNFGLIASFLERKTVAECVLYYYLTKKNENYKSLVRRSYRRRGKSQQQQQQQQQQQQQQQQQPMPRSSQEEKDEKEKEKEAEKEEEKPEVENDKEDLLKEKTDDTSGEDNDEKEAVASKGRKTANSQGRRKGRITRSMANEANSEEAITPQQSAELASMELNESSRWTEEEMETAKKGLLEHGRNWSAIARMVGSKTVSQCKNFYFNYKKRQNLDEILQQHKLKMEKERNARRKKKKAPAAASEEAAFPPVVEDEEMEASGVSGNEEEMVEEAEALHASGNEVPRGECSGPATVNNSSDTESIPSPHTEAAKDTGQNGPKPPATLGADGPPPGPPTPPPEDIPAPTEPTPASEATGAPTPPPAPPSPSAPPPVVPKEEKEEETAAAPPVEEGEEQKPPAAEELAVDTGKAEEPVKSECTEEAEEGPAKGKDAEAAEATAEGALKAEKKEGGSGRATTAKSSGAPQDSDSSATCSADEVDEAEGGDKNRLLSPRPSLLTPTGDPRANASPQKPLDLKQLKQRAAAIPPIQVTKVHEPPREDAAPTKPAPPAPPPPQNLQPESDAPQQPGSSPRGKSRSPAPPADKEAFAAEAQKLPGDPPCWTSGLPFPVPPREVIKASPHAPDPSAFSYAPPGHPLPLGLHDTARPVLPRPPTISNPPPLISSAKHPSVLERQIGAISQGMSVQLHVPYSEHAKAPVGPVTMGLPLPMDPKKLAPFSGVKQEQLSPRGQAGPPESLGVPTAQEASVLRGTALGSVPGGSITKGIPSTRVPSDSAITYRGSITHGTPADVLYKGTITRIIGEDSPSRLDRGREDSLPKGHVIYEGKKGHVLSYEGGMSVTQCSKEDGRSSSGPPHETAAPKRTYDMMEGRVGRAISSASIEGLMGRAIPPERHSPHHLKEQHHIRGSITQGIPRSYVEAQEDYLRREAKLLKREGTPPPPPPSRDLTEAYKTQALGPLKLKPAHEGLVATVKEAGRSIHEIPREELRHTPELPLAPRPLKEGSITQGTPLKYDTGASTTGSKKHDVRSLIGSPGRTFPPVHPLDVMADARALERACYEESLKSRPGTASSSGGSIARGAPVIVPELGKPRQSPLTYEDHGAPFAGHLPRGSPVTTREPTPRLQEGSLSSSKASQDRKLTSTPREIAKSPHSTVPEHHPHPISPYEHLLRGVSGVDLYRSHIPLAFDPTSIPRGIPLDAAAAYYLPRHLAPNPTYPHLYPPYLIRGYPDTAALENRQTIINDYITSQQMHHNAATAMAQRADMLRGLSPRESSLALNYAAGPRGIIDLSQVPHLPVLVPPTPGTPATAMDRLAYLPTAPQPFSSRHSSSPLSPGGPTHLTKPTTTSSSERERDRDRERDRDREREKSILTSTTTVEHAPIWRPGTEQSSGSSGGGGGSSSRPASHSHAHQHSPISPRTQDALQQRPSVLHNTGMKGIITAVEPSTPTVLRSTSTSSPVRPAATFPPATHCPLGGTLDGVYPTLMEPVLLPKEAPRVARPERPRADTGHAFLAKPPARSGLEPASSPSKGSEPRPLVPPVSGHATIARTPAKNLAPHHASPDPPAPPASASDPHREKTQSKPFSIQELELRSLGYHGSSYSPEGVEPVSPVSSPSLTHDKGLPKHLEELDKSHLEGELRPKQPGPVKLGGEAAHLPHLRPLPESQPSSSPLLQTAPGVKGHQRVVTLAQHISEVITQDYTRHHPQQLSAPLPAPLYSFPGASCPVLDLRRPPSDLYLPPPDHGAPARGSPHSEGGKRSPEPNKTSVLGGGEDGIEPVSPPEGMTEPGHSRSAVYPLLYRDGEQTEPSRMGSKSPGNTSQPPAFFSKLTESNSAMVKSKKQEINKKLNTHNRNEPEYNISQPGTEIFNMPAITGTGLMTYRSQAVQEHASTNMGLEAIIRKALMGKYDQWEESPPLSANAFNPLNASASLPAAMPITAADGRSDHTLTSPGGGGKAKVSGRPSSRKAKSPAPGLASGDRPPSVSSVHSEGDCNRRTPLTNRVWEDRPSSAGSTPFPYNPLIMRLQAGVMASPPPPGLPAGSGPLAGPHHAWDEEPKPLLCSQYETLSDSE
- run.description: Inhibition of full length human C-terminal His-tagged HDAC3/human N-terminal GST-agged NCOR2 using fluorogenic acetylated peptide as substrate incubated for 30 mins by fluorescence plate reader assay
// returns condition not met unless IC50 is strictly below 40 nM, in which case condition met

# molecule, assigned.category
rows = [
    ("COc1cc2nc(-c3ccc(C)o3)cc(NCC3CCN(c4ncc(C(=O)NO)cn4)CC3)c2cc1OC", "condition met"),
    ("COc1cc2c(NCC3CCN(c4ncc(C(=O)NO)cn4)CC3)cc(-c3ccc(C)o3)nc2cc1OCCCN1CCCC1", "condition met"),
    ("COc1cc2nc(-c3ccc(C)o3)cc(NCC3CCC(C(=O)NO)CC3)c2cc1OC (stereo unspecified)", "condition not met"),
    ("COc1cc2c(NCC3CCC(C(=O)NO)CC3)cc(-c3ccc(C)o3)nc2cc1OCCCN1CCCC1 (stereo unspecified)", "condition not met"),
    ("COc1cc2nc(-c3ccc(C)o3)nc(NCC3CCN(c4ncc(C(=O)NO)cn4)CC3)c2cc1OC", "condition met"),
]

[in] Hi there! Is IC50 for `COc1cc2c(NCc3ccc(C(=O)NO)cc3)cc(-c3ccc(C)o3)nc2cc1OCCCN1CCCC1` below 40 nM, do you know?
[out] condition met

[in] Given COc1cc2nc(-c3ccc(C)o3)cc(NCC3C4CCC3CN(c3ncc(C(=O)NO)cn3)C4)c2cc1OC (stereo unspecified) , is recorded IC50 strictly lower than 40 nM?
[out] condition met

[in] Does the reported IC50 of `COc1cc2nc(-c3ccc(C)o3)cc(NC3CCN(c4ncc(C(=O)NO)cn4)CC3)c2cc1OC` stay below 40 nM?
[out] condition not met

---

- system.under.test: Protein deacetylase HDAC6 (Homo sapiens)
- Sequence (Q9UBN7 whole entry): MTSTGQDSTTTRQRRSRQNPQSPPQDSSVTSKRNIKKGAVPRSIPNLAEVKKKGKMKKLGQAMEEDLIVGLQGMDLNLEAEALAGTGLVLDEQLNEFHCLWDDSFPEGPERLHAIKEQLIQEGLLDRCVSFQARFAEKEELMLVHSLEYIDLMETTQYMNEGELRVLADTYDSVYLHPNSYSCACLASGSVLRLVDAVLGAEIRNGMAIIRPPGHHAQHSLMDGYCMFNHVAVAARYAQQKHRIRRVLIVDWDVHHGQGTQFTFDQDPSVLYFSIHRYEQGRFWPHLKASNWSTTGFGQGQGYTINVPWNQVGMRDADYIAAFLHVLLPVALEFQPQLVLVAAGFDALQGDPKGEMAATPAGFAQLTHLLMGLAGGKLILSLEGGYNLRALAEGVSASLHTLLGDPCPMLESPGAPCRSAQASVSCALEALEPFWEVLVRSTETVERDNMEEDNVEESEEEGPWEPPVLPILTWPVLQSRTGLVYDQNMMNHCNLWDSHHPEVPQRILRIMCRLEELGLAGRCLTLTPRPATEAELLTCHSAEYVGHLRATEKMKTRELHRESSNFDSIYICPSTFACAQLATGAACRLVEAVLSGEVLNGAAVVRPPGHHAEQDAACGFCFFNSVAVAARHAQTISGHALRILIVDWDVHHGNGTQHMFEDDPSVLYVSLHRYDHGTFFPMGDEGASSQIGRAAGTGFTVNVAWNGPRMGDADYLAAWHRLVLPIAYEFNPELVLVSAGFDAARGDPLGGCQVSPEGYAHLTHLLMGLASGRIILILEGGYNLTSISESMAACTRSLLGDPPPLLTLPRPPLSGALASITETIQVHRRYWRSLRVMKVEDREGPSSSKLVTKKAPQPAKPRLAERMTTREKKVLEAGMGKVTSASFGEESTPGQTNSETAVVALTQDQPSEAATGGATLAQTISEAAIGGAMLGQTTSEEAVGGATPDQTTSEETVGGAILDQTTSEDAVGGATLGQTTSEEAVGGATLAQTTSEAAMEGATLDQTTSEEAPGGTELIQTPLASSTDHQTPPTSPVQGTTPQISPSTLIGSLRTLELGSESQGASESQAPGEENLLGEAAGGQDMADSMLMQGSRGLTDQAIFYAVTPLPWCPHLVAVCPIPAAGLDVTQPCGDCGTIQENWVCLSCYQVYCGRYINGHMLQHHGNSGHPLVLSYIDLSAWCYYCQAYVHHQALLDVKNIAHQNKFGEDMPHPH
Reported pIC50 values for the following compounds.
// pIC50 here means minus log10 of the molar concentration (mol/L)

Answered cases to consult:
# compound, system.under.test, pIC50
rows = [
    ("COc1cc2nc(-c3ccccc3)cc(NCC3CCN(c4ncc(C(=O)NO)cn4)CC3)c2cc1OC", "Protein deacetylase HDAC6 (Homo sapiens)", 6.64),
    ("COc1cc2c(NCC3CCC(c4ccc(C(=O)NO)cc4)CC3)cc(-c3ccc(C)o3)nc2cc1OCCCN1CCCC1 (stereo not drawn)", "Protein deacetylase HDAC6 (Homo sapiens)", 6.91),
    ("COc1cc2c(NCC3CCC(C(=O)NO)CC3)cc(-c3ccc(C)o3)nc2cc1OCCCN1CCCC1 (stereo not drawn)", "Protein deacetylase HDAC6 (Homo sapiens)", 7.47),
    ("COc1cc2nc(-c3ccc(C)o3)cc(NCC3CCN(Cc4ccc(C(=O)NO)s4)CC3)c2cc1OC", "Protein deacetylase HDAC6 (Homo sapiens)", 7.18),
    ("COc1cc2nc(-c3ccc(C)o3)cc(NCC3CCN(Cc4ccc(C(=O)NO)cc4)CC3)c2cc1OC", "Protein deacetylase HDAC6 (Homo sapiens)", 7.08),
    ("COc1cc2nc(C3CCCCC3)cc(NCC3CCN(c4ncc(C(=O)NO)cn4)CC3)c2cc1OC", "Protein deacetylase HDAC6 (Homo sapiens)", 6.95),
    ("COc1cc2c(NCC3CCN(c4ncc(C(=O)NO)cn4)CC3)cc(-c3ccc(C)o3)nc2cc1OCCCN1CCCC1", "Protein deacetylase HDAC6 (Homo sapiens)", 6.82),
    ("COc1cc2c(NC3CCN(Cc4ccc(C(=O)NO)cc4)CC3)cc(-c3ccc(C)o3)nc2cc1OCCCN1CCCC1", "Protein deacetylase HDAC6 (Homo sapiens)", 7.41),
    ("COc1cc2c(NCc3ccc(-c4ccc(C(=O)NO)cc4)cc3)cc(-c3ccc(C)o3)nc2cc1OCCCN1CCCC1", "Protein deacetylase HDAC6 (Homo sapiens)", 6.90),
    ("COc1cc2c(NCC3CCN(c4ccc(C(=O)NO)cc4)CC3)cc(-c3ccc(C)o3)nc2cc1OCCCN1CCCC1", "Protein deacetylase HDAC6 (Homo sapiens)", 7.17),
]

[in] Recall the recorded pIC50 for `COc1cc2c(NCC3CCN(c4ncc(C(=O)NO)cn4)CC3)cc(C)nc2cc1OCCCN1CCCC1` with Protein deacetylase HDAC6 (Homo sapiens) and state it.
[out] 6.46

[in] Short answer please: pIC50, Protein deacetylase HDAC6 (Homo sapiens), entry `COc1cc2c(NC3CCN(c4ncc(C(=O)NO)cn4)CC3)cc(C)nc2cc1OCCCN1CCCC1`
[out] 6.93

[in] API: value(readout= pIC50, system= Protein deacetylase HDAC6 (Homo sapiens), query= `COc1cc2nc(C)cc(NCC3CCN(c4ncc(C(=O)NO)cn4)CC3)c2cc1OC` )
[out] 6.60

[in] Observed pIC50 on Protein deacetylase HDAC6 (Homo sapiens) for `COc1cc2c(NC3CCN(c4ccc(C(=O)NO)cc4)CC3)cc(-c3ccc(C)o3)nc2cc1OCCCN1CCCC1` , please.
[out] 6.88

[in] Field: pIC50 (Protein deacetylase HDAC6 (Homo sapiens)). Entry: COc1cc2nc(-c3ccc(C)o3)cc(NCC3CCN(C4CC(C(=O)NO)C4)CC3)c2cc1OC (stereo not drawn)
[out] 5.50

[in] Write down the reported pIC50 of `COc1cc2nc(-c3ccc(C)o3)nc(NCC3CCN(c4ncc(C(=O)NO)cn4)CC3)c2cc1OC` , test system: Protein deacetylase HDAC6 (Homo sapiens).
[out] 6.30

[in] Item `COc1cc2c(NCC3CCN(Cc4ccc(C(=O)NO)cc4)CC3)cc(-c3ccc(C)o3)nc2cc1OCCCN1CCCC1` with Protein deacetylase HDAC6 (Homo sapiens) - pIC50?
[out] 7.28

[in] Lab request: please report pIC50 under test system Protein deacetylase HDAC6 (Homo sapiens) for `COc1cc2c(NCc3ccc(C(=O)NO)cc3)cc(-c3ccc(C)o3)nc2cc1OCCCN1CCCC1`
[out] 7.96

---

- run.description: Apparent volume of distribution during terminal phase in BALB/c RAG2-/- gammaC-/- mouse at 10 mg/kg, ip using 80% saline 10% Tween20 and 10% DMSO formulation measured up to 24 hrs by UPLC-triple quadrupole MS analysis
- Format: ADME, organism-based
- condition.summary: in vivo, read-out: Vz/F
observation.type: Vd/F

[in] I have this molecule here, `COc1cc2nc(-c3ccc(C)o3)cc(NCC3CCN(c4ncc(C(=O)NO)cn4)CC3)c2cc1OC` , and I need its recorded Vd/F.
[out] 6.56 L
